# System: NCI-H522
# test description: NCI tumour cell line growth inhibition, 48 h
Active and inactive are the calls of the source. No stated cut-off is given here; in the data, active = GI50 up to about 1.1 µM and inactive = higher.
Possible outcomes: 1.0 (active), 0.0 (inactive)

> print(dat)
                                   molecule  target.or.system  category
1  COc1cc2c(c(OC)c1OC)-c1ccc(SC)c(=O)cc1C(NC=O)CC2 (stereo not drawn)          NCI-H522       1.0
2  COc1cc(N(C)C)ccc1C=c1c2ccccc2n2c1cc(-c1ccccc1)[n+]2C          NCI-H522       1.0
3  CCOc1ccc(NCC2CC/C(=C\C=C\c3ccccc3)C2=O)cc1 (stereo not drawn)          NCI-H522       0.0

###

# Tested on: SK-MEL-5
# test description: NCI tumour cell line growth inhibition, 48 h
Calls of active or inactive are those of the source. No stated cut-off is given here; in the data, active = GI50 up to about 1.1 µM and inactive = higher.
Outcome codes: active, inactive

compound	category
O=C(CCn1[nH]c(=O)c(Cl)c(Cl)c1=O)NNC(=O)C[n+]1ccccc1	inactive
O=C(Nc1ccccc1)n1[nH]c(=O)n(-c2ccccc2)c1=O	inactive
CC(=O)O[C@H]1C(=O)[C@@]2(C)[C@H]([C@H](OC(=O)c3ccco3)[C@]3(O)C[C@H](OC(=O)[C@H](O)[C@@H](NC(=O)c4ccccc4)c4ccccc4)C(C)=C1C3(C)C)[C@]1(OC(C)=O)CO[C@@H]1C[C@@H]2O	active
O=C(CSCC(=O)N/N=C/c1cc(I)cc(I)c1O)N/N=C/c1cc(I)cc(I)c1O	inactive
COc1ccc2c(c1)-c1nn(CCCN(C)C)c3ccc([N+](=O)[O-])c(c13)N2 [PYRAZOLOACRIDINE]	active
CSCCC(N)P(C)(=O)O (stereo not drawn)	inactive
CC(C)=CC(=O)Cc1nc2ccc([N+](=O)[O-])cc2[nH]c1=O	inactive
CCCCC1Cc2ccccc2-c2nc3ccccc3n21 (stereo not drawn)	inactive
C=C1CC(OC)(C(O)C(=O)N[C@H]2OCO[C@H]3C2O[C@H](C[C@@H](COC)OC)C(C)(C)C3OC)O[C@H](C)[C@@H]1C (stereo partly drawn)	active
COc1cc(C[C@H]2c3cc(OC)c(OC)cc3CCN2C)c(Oc2cc3c(cc2OC)-c2c(OC)c(OC)cc4c2[C@H](C3)N(C)CC4)cc1OC [THALICARPINE]	inactive
S=C1CNC(=S)CN1	inactive
O=[As](O)(O)c1ccc(Cc2ccc([As](=O)(O)O)cc2)cc1	active
N[C@@H](CCC(=O)NCP(=O)(O)O)C(=O)O	inactive
CC1=C(C)C(=O)O[C@@H]([C@](C)(O)[C@]2(O)CC[C@@]3(O)[C@@H]4C[C@H]5O[C@]56[C@@H](O)C=CC(=O)[C@]6(C)[C@H]4CC[C@]23C)C1	active
CC(=O)OCC1OC(Sc2ccccn2)C=CC1OC(C)=O (stereo not drawn)	inactive
Cc1ccc(/N=N/C2S/C(=C(\C#N)c3nc4ccccc4[nH]3)N(c3ccccc3)C2=O)cc1 (stereo not drawn)	inactive
COC(=O)[C@]12CSCN1C(=O)C(C(C)=O)=NN2C(=O)[C@](OC)(c1ccccc1)C(F)(F)F	inactive
CN1C(c2ccccc2)CC(O)CC1c1ccccc1 (stereo not drawn)	inactive

###

# Tested on: COLO 205
# test description: NCI tumour cell line growth inhibition, 48 h
Active and inactive are the calls of the source. No stated cut-off is given here; in the data, active = GI50 up to about 1.1 µM and inactive = higher.
Possible outcomes: TRUE for active, FALSE for inactive

compound	category
CC(=O)OCCOCn1c2c(c(=O)[nH]c1=O)CCC2	FALSE
CN(C)c1cccc2c(S(=O)(=O)NCCN)cccc12	FALSE
Cc1cc(C)c2c(=N)c3ccccc3n(CCCCCCO)c2n1	FALSE
CN1C2(c3ccccc3)c3c(-c4ccccc4)sc(-c4ccccc4)c3C1(c1ccccc1)C1C(=O)N(c3ccccc3)C(=O)C12 (stereo unspecified)	FALSE
C[C@H]1[C@H](C)CC[C@]2(C(=O)OC3OC(CO)C(O)C(O)C3O)CC[C@]3(C)C(=CC[C@@H]4[C@@]5(C)C[C@@H](O)[C@@H]6OC(=O)c7cc(O)c(O)c(O)c7-c7c(cc(O)c(O)c7O)C(=O)OC[C@@]6(CO)[C@@H]5CC[C@]43C)[C@H]12 (stereo partly specified)	FALSE
Cc1ccccc1NC(=O)C(=O)CC(=O)c1sc(Nc2ccccc2[N+](=O)[O-])nc1C	FALSE
CCOC(=O)c1cc(-c2ccn(C(C)=O)c2)c(-c2cc(C)co2)[nH]1	FALSE
CS(=O)(=O)OCCN(CCOS(C)(=O)=O)c1ccc(/C=N/c2ccc(-c3csc(Cc4ccccc4)n3)cc2)c(Cl)c1	FALSE
COC(=O)c1cc(C(=CCC[C@H]2CC[C@@]3(C)C(CCC4C3CC[C@@]3(C)C4CC[C@@H]3C(C)CCCC(C)C)C2)c2cc(Cl)c(OC(=O)c3ccccc3)c(C(=O)OC)c2)cc(Cl)c1OC(=O)c1ccccc1 (stereo partly specified)	FALSE
CC(Oc1ccc2cc(C(=O)c3ccccc3)c(=O)oc2c1)C(=O)O (stereo unspecified)	FALSE
COc1cc(-c2[nH]ccc2Cl)oc1C1=C2N=C3C=C2C(C(C)C)C1CCCCCCCC3 (stereo unspecified)	TRUE
CC(=O)C(I(OS(=O)(=O)c1ccc(C)cc1)c1ccccc1)=P(c1ccccc1)(c1ccccc1)c1ccccc1	FALSE
O=C(NNS(=O)(=O)c1ccccc1)c1csc(NC(=S)NC2CCCCC2)n1	FALSE
Cc1cn(CCOCCOC(=O)NC(CCCNC(=N)N)C(=O)O)c(=O)[nH]c1=O (stereo unspecified)	FALSE
CN(Cc1cnc2nc(N)nc(N)c2n1)c1ccc(C(=O)N[C@@H](CCC(=O)O)C(=O)O)cc1 [METHOTREXATE]	FALSE
C=CC1(O)CCCC=C1COCc1ccccc1 (stereo unspecified)	FALSE
CCOC(=O)C1=C(C)N(C)C23OC4(C(=O)OC)CC2c2ccccc2C1N3C4=O (stereo unspecified)	FALSE
COc1ccc(N2C(=O)C3c4[nH]c5ccccc5c4C4c5ccccc5CC4C3C2=O)cc1 (stereo unspecified)	FALSE
N#Cc1ccc(/N=C(/NCC(=O)O)Nc2ccc3ccccc3c2)cc1	FALSE
C=CCc1cccc2cc(C(N)=O)c(=N)oc12	FALSE
CN(C)CCNC(=O)c1ccc(NCCCN(C)CCCNc2ccc(C(=O)NCCN(C)C)c3nc4ccccc4c(O)c23)c2c(O)c3ccccc3nc12	TRUE

###

Property: GI50; scope: individual compounds
# System: OVCAR-5
# test description: NCI tumour cell line growth inhibition, 48 h
Active and inactive are the calls of the source. No stated cut-off is given here; in the data, active = GI50 up to about 1.1 µM and inactive = higher.

compound	GI50
CO[C@H]1[C@@H](O)[C@H](O[C@@H]2C[C@H]3CC[C@@H]4[C@H](CC[C@]5(C)[C@@H](C6=CC(=O)OC6)CC[C@]45O)[C@@]3(C)[C@H](OC(C)=O)C2)O[C@@H](C)[C@H]1O	2.18 µM (inactive)
CC(C(N)=O)N(C)C(=O)c1cc2ccccc2[n+](Cc2ccccc2)c1 (centres undefined)	> 100 µM (inactive)
CCOC(=N)CC(=O)Nc1ccccc1CC	> 100 µM (inactive)
O=CNNC(=O)Nc1ccc(Cl)cc1	> 100 µM (inactive)

###

# Test system: LXFL 529
# test description: NCI tumour cell line growth inhibition, 48 h
Active and inactive are the calls of the source. Rule as the data show it: active = GI50 up to about 1.1 µM and inactive = higher.
Classes used: y for active, n for inactive

> print(dat)
                                    compound  category
 1  COC(=O)C(=O)C(C(C)=O)C(=O)C(=O)Nc1ccc(C)cc1C (stereo not drawn)         n
 2  COc1cc(-c2[nH]ccc2Cl)oc1C1=C2N=C3C=C2C(C(C)C)C1CCCCCCCC3 (stereo not drawn)         y
 3                  COc1c(Cl)cc(Cl)cc1S(=O)O         n
 4  O=C(CC1(O)C(=O)Nc2ccccc21)c1ccc(F)cc1 (stereo not drawn)         n
 5  CCOc1ccc2[nH]c3c(C)c4cc[n+](C)cc4c(C)c3c2c1         y
 6  Cc1ccc(NC(=O)CC2C(=O)Nc3ccccc3S2(=O)=O)cc1C (stereo not drawn)         n
 7  COc1cc(NS(C)(=O)=O)ccc1Nc1c2ccccc2nc2ccccc12         n
 8  COc1cc(C[C@H]2c3cc(OC)c(OC)cc3CCN2C)c(Oc2cc3c(cc2OC)-c2c(OC)c(OC)cc4c2[C@H](C3)N(C)CC4)cc1OC         n
 9  O=C(CCn1[nH]c(=O)c(Cl)c(Cl)c1=O)NNC(=O)C[n+]1ccccc1         n
10  CC[n+]1c(/C=C/c2cc(C(=O)OC)n3c2sc2ccccc23)sc2ccccc21         n
11  O=C1C2ON3c4ccccc4C(=O)C3(c3ccccc3)C2C(=O)N1c1ccccc1 (stereo not drawn)         n
12  O=C1NC(=O)C2C1C1C=C3c4ccccc4N(c4ccccc4)C32[C@H]2C(=O)NC(=O)[C@@H]12 (stereo partly drawn)         n
13  CNC(=O)C1CCc2nnc(-c3ccccc3)n21 (stereo not drawn)         n
14        O=c1[nH]c(-c2ccccc2)nc2cc(Cl)ccc12         n
15  CCOC(=O)N1C2C=C(C)C(ON2C(=O)c2ccccc2)C2C(C)C(=O)N21 (stereo not drawn)         n
16  O=c1ccn([C@H]2CSC[C@@H](CO)C2)c(=O)[nH]1         n
17  Cc1ccc(NC(=O)/C(=N/NC(=O)C[N+](C)(C)C)c2nc3ccccc3nc2O)cc1         n
18  CCCCCCCCCCCCCCCC(=O)OCCOCCOCCOCCOCCOC(=O)CCCCCCCCCCCCCCC         n
